Test system: Escherichia coli TOP10
ASSAY_TEXT: shrunken log2 fold change of peptide-encoding DNA abundance (4.5 h post-induction vs induction); higher = less antimicrobial activity (less host growth inhibition)
MEASUREMENT_CONDITIONS: time post-induction: 4.5 h; library: site-saturation at positions 5, 18, 19, 20
Everything with shrunken log2 fold change lower than -0.05 is FALSE; everything else, including exactly -0.05, is TRUE.

RRIRYRPPRLPRPRPRPDRSPRP
TRUE

[Q] Please check the record RRIRARPPRLPRPRPRPPPLPRP and state if its shrunken log2 fold change is at or above -0.05.
[A] TRUE

[Q] Decide: shrunken log2 fold change of RRIRRRPPRLPRPRPRPNYKPRP >= -0.05?
[A] FALSE

[Q] Is shrunken log2 fold change at least -0.05? Consider RRIRFRPPRLPRPRPRPSCWPRP
[A] TRUE

[Q] Say whether RRIRTRPPRLPRPRPRPHWAPRP shows shrunken log2 fold change of -0.05 or more.
[A] TRUE

[Q] // inclusive: shrunken log2 fold change at least -0.05? input: RRIRTRPPRLPRPRPRPDYGPRP
[A] TRUE

[Q] Quick check: does RRIRHRPPRLPRPRPRPMDMPRP have shrunken log2 fold change greater than or equal to -0.05?
[A] TRUE

[Q] Record RRIRWRPPRLPRPRPRPTWTPRP ; criterion: shrunken log2 fold change no lower than -0.05. Met?
[A] TRUE

###

Test system: Escherichia coli TOP10
ASSAY_TEXT: shrunken log2 fold change of peptide-encoding DNA abundance (4.5 h post-induction vs induction); higher = less antimicrobial activity (less host growth inhibition)
MEASUREMENT_CONDITIONS: time post-induction: 4.5 h; library: site-saturation at positions 5, 18, 19, 20
Classification field: enter label 1 for shrunken log2 fold change values not below -0.06, label 0 for values below it.

RRIRRRPPRLPRPRPRPMVVPRP
label 1

[Q] Would you say RRIRERPPRLPRPRPRPWNNPRP shows shrunken log2 fold change at minimum -0.06?
[A] label 0

[Q] Assess whether reported shrunken log2 fold change for RRIRYRPPRLPRPRPRPEIIPRP sits at -0.06 or higher.
[A] label 0

[Q] Given the entry RRIRLRPPRLPRPRPRPKKSPRP , answer whether its shrunken log2 fold change meets or surpasses -0.06.
[A] label 1

[Q] shrunken log2 fold change >= -0.06 for RRIRMRPPRLPRPRPRPERKPRP ?
[A] label 1

[Q] Form field: shrunken log2 fold change at least -0.06? Entry: RRIRNRPPRLPRPRPRPAYTPRP
[A] label 0

[Q] Hi team, for RRIRLRPPRLPRPRPRPKRAPRP , is the recorded shrunken log2 fold change at or above -0.06?
[A] label 1

[Q] Does the sequence RRIRGRPPRLPRPRPRPNDVPRP have recorded shrunken log2 fold change that is -0.06 or more?
[A] label 0

[Q] Determine whether measured shrunken log2 fold change meets or exceeds -0.06 for RRIRARPPRLPRPRPRPFEEPRP
[A] label 1

[Q] Please indicate if the recorded shrunken log2 fold change for RRIRPRPPRLPRPRPRPWGHPRP meets or exceeds -0.06.
[A] label 0

[Q] Could you tell me if the measured shrunken log2 fold change of RRIRQRPPRLPRPRPRPKFEPRP reaches -0.06 or more?
[A] label 0

[Q] Assess whether reported shrunken log2 fold change for RRIRDRPPRLPRPRPRPIMSPRP sits at -0.06 or higher.
[A] label 1

###

System: Escherichia coli TOP10
ASSAY_TEXT: shrunken log2 fold change of peptide-encoding DNA abundance (4.5 h post-induction vs induction); higher = less antimicrobial activity (less host growth inhibition)
MEASUREMENT_CONDITIONS: time post-induction: 4.5 h; library: site-saturation at positions 5, 18, 19, 20
Below, each entry is listed with its recorded shrunken log2 fold change.
Give only the figure.

RRIRSRPPRLPRPRPRPSTMPRP
-0.455
RRIRLRPPRLPRPRPRPRVIPRP
0.0615
RRIRLRPPRLPRPRPRPCFIPRP
0.554
RRIRYRPPRLPRPRPRPLHKPRP
0.0382
RRIRWRPPRLPRPRPRPWVHPRP
-0.597
RRIRYRPPRLPRPRPRPWLIPRP
-0.204
RRIRYRPPRLPRPRPRPSETPRP
-0.523
RRIRGRPPRLPRPRPRPGIMPRP
0.374

Short answer on Escherichia coli TOP10 for RRIRDRPPRLPRPRPRPKTVPRP , shrunken log2 fold change: 0.271

// sequence RRIRFRPPRLPRPRPRPDRTPRP , assay Escherichia coli TOP10, shrunken log2 fold change value: -0.0783

RRIRHRPPRLPRPRPRPCSHPRP on Escherichia coli TOP10 gives shrunken log2 fold change = -0.0787

Summary: RRIRQRPPRLPRPRPRPCAPPRP , Escherichia coli TOP10, shrunken log2 fold change = 0.226

Value sought: shrunken log2 fold change, system Escherichia coli TOP10, item RRIRERPPRLPRPRPRPYASPRP . Result: -0.303

###

Tested on: Escherichia coli TOP10
ASSAY_TEXT: shrunken log2 fold change of peptide-encoding DNA abundance (4.5 h post-induction vs induction); higher = less antimicrobial activity (less host growth inhibition)
MEASUREMENT_CONDITIONS: time post-induction: 4.5 h; library: site-saturation at positions 5, 18, 19, 20
Measured shrunken log2 fold change, listed per entry.
# output: bare number, no unit

Reference set (6 entries):
RRIRMRPPRLPRPRPRPKIQPRP
0.158
RRIRYRPPRLPRPRPRPSYIPRP
-1.4
RRIRSRPPRLPRPRPRPGCDPRP
0.332
RRIRQRPPRLPRPRPRPKHQPRP
-0.386
RRIRGRPPRLPRPRPRPDDLPRP
0.0487
RRIRDRPPRLPRPRPRPYGNPRP
-0.117

The recorded shrunken log2 fold change for entry RRIRCRPPRLPRPRPRPMPDPRP equals -0.0379

shrunken log2 fold change for RRIRDRPPRLPRPRPRPVDGPRP is 0.0169

// shrunken log2 fold change value for RRIRKRPPRLPRPRPRPKEYPRP : 0.191

Entry RRIRMRPPRLPRPRPRPVLQPRP ; shrunken log2 fold change = 0.259

The value of shrunken log2 fold change measured for the sequence RRIRLRPPRLPRPRPRPIAVPRP turned out to be -0.16

Please fill in: shrunken log2 fold change reported for RRIRKRPPRLPRPRPRPHGTPRP = -0.0973

// recorded shrunken log2 fold change for RRIRWRPPRLPRPRPRPYYHPRP : -0.306

Record RRIRTRPPRLPRPRPRPHSIPRP , field shrunken log2 fold change: -0.0668

Per the record, RRIRKRPPRLPRPRPRPVQQPRP has shrunken log2 fold change of 0.368

###

Here, each record is paired with measured shrunken log2 fold change data.
Tested on: Escherichia coli TOP10
ASSAY_TEXT: shrunken log2 fold change of peptide-encoding DNA abundance (4.5 h post-induction vs induction); higher = less antimicrobial activity (less host growth inhibition)
MEASUREMENT_CONDITIONS: time post-induction: 4.5 h; library: site-saturation at positions 5, 18, 19, 20
Respond numerically, and do not add a unit to the figure.

RRIRQRPPRLPRPRPRPRSIPRP
-0.0928

Given item RRIRIRPPRLPRPRPRPDMGPRP , the value recorded as its shrunken log2 fold change is -0.0742

Short answer for RRIRTRPPRLPRPRPRPMKHPRP : shrunken log2 fold change was -0.00108

The measured shrunken log2 fold change associated with RRIRNRPPRLPRPRPRPKMHPRP reads -0.0913

Record RRIRMRPPRLPRPRPRPVFLPRP . Reported shrunken log2 fold change: 0.0386

Entry under test: RRIRHRPPRLPRPRPRPAMCPRP . Its shrunken log2 fold change was -0.148

// shrunken log2 fold change lookup, sequence = RRIRPRPPRLPRPRPRPVWNPRP , result: -0.109

###

# key: entry, value: shrunken log2 fold change
Tested on: Escherichia coli TOP10;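 further: peptides expressed intracellularly from a pBAD plasmid library in pooled LB shake-flask culture, induced with 0.3% L-arabinose, DNA abundance read by NGS, three biological replicates, DESeq2 with apeglm shrinkage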
ASSAY_TEXT: shrunken log2 fold change of peptide-encoding DNA abundance (4.5 h post-induction vs induction); higher = less antimicrobial activity (less host growth inhibition)
MEASUREMENT_CONDITIONS: time post-induction: 4.5 h; library: site-saturation at positions 5, 18, 19, 20
API note: the answer field is a bare number with no unit suffix.

Recorded shrunken log2 fold change, per entry:
RRIRYRPPRLPRPRPRPVLTPRP
-0.0151
RRIRARPPRLPRPRPRPKPSPRP
0.524
RRIRERPPRLPRPRPRPHRDPRP
-0.063
RRIRARPPRLPRPRPRPMLVPRP
0.291
RRIRSRPPRLPRPRPRPPKLPRP
-0.11
RRIRKRPPRLPRPRPRPPFVPRP
0.209
RRIRFRPPRLPRPRPRPFLHPRP
-0.329
RRIRQRPPRLPRPRPRPVITPRP
-0.414
RRIRNRPPRLPRPRPRPFSVPRP
-0.678
RRIRVRPPRLPRPRPRPAIAPRP
0.107

Documented shrunken log2 fold change of RRIRWRPPRLPRPRPRPRHNPRP : 0.576

sequence RRIRSRPPRLPRPRPRPLARPRP , shrunken log2 fold change observed: 0.0314

Entry RRIRVRPPRLPRPRPRPVYFPRP ; shrunken log2 fold change = -0.334

Summary for this sequence, RRIRYRPPRLPRPRPRPHQWPRP : shrunken log2 fold change is -0.649
